Quick list: protein stability index per entry.
B1: KLHL12 (parent)
chain: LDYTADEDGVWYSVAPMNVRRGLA

variants of: B1; experiment: protein stability index of a GFP-peptide fusion (GPS, HEK-293T) (PSI 1-6); higher = more stable; conditions: c terminus: a fixed tail appended;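 further: lentivirally expressed fusions sorted by FACS into six bins by GFP to DsRed ratio, PSI derived from sequencing read proportions per bin multiplied by bin number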
ASSAY READOUT: protein stability index

1) V14F; 2.18
2) N18C; 1.35
3) Y3W; 1.94
4) R20F; 1.7
5) D2P; 2.48
6) S13Q; 2.06
7) M17I; 3.28
8) N18H; 1.95
9) R20K; 1.89
10) D8S; 2.69
11) Y3V; 1.78

Reference source for all entries: the supplement of paper PMC10567573
